- measured on: human SGLT1 (Homo sapiens (Human))
- Sequence (P13866 whole entry): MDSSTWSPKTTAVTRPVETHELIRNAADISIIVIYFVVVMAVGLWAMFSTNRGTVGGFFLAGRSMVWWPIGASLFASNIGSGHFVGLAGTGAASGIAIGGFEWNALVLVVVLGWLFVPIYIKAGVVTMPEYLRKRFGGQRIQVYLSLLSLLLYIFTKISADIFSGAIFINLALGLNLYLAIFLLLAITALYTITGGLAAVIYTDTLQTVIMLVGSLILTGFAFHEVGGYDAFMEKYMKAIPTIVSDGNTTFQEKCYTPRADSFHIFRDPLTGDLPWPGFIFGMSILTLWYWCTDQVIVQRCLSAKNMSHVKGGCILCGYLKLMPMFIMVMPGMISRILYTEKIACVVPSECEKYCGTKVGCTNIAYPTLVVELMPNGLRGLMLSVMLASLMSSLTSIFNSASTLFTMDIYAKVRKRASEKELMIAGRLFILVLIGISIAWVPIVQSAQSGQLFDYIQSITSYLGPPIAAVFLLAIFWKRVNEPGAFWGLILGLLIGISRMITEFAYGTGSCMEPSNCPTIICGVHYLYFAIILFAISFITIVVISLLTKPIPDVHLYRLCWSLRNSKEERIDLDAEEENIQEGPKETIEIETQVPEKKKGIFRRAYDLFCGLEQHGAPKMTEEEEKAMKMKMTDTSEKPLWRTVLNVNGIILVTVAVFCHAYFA
- test: SGLT1 inhibitory activity: intracellular uptake of 14C-AMG in human SGLT1-stably-expressing CHO-K1 cell line
- study conditions: human SGLT1-stably-expressing CHO-K1 cells, 14C-AMG uptake; read-out: hSGLT1 IC50
assay endpoint: log10 IC50 (log10 of the value in nM)
// units: nM (pre-log); metric: IC50; scale: log10

Solved entries (count: 3):
{"molecule": "C[C@H]1C(=O)NC[C@@H]1C(=O)Nc1cc(-c2cc(F)cc(OC(C)(C)C(F)(F)F)c2)n(-c2nccc(C(F)(F)F)n2)n1 [Example 16]", "log10 IC50": 1.92}
{"molecule": "C[C@H]1C(=O)NC[C@@H]1C(=O)Nc1cc(-c2cc(F)cc(OC(C)(C)C(F)(F)F)c2)n(-c2cnccn2)n1 [Example 23]", "log10 IC50": 1.04}
{"molecule": "C[C@H]1C(=O)NC[C@@H]1C(=O)Nc1cc(-c2cc(F)cc(OCC(F)(F)F)c2)n(-c2cncc(F)c2)n1 [Example 34]", "log10 IC50": 0.99}

// query What value of log10 IC50 has been recorded for this entry: C[C@H]1C(=O)NC[C@@H]1C(=O)Nc1cc(-c2cc(F)cc(OC(C)(C)C(F)(F)F)c2)n(-c2cccnc2C#N)n1 [Example 11]
// result 0.92

// query Next up: C[C@H]1C(=O)NC[C@@H]1C(=O)Nc1cc(-c2cc(F)cc(OC(C)(C)C)c2)n(-c2cnccn2)n1 [Example 4]
// result 1.36

// query Now consider C[C@H]1C(=O)NC[C@@H]1C(=O)Nc1cc(-c2cc(F)cc(OC(C)(C)C(F)(F)F)c2)n(-c2cncc(F)c2)n1 [Example 21] and answer again.
// result 0.08

// query Try C[C@H]1C(=O)NC[C@@H]1C(=O)Nc1cc(-c2cc(F)cc(OC(C)(C)C(F)(F)F)c2)n(-c2cnc(C(F)(F)F)cn2)n1 [Example 15] next.
// result 0.79

// query Proceed to C[C@H]1C(=O)NC[C@@H]1C(=O)Nc1cc(-c2cc(F)cc(OCC(F)(F)F)c2)n(-c2cncnc2)n1 [Example 32]
// result 1.84

// query Same question, C[C@H]1C(=O)NC[C@@H]1C(=O)Nc1cc(-c2cc(F)cc(OC(C)(C)C(F)(F)F)c2)n(-c2cncnc2)n1 [Example 22] this time
// result 0.53

----------
- measured on: human SGLT1 (Homo sapiens (Human))
- test: SGLT1 inhibitory activity: intracellular uptake of 14C-AMG in human SGLT1-stably-expressing CHO-K1 cell line
- Format: cell-based
- study conditions: human SGLT1-stably-expressing CHO-K1 cells, 14C-AMG uptake; read-out: hSGLT1 IC50
Quick reference: IC50 of the listed items.
Provide only the numeric value, understood in nM.

{"chemical string": "C[C@H]1C(=O)NC[C@@H]1C(=O)Nc1cc(-c2cc(F)cc(OC(C)(C)C(F)(F)F)c2)n(-c2ccnc(C(F)(F)F)n2)n1", "measured on": "human SGLT1 (Homo sapiens (Human))", "unit abbreviation": "nM", "IC50": 73}
{"chemical string": "C[C@H]1C(=O)NC[C@@H]1C(=O)Nc1cc(-c2cc(F)cc(OC(C)(C)C(F)(F)F)c2)n(-c2cnccc2C(F)(F)F)n1", "measured on": "human SGLT1 (Homo sapiens (Human))", "unit abbreviation": "nM", "IC50": 2.9}
{"chemical string": "C[C@H]1C(=O)NC[C@@H]1C(=O)Nc1cc(-c2cc(F)cc(OC(C)(C)C(F)(F)F)c2)n(-c2cnc(C(F)(F)F)nc2)n1", "measured on": "human SGLT1 (Homo sapiens (Human))", "unit abbreviation": "nM", "IC50": 1.9}
{"chemical string": "C[C@H]1C(=O)NC[C@@H]1C(=O)Nc1cc(-c2cc(F)cc(OC(F)(F)F)c2)n(-c2cncnc2)n1", "measured on": "human SGLT1 (Homo sapiens (Human))", "unit abbreviation": "nM", "IC50": 52}
{"chemical string": "C[C@H]1C(=O)NC[C@@H]1C(=O)Nc1cc(-c2cc(F)cc(OC(F)(F)F)c2)n(-c2cncc(C(F)(F)F)c2)n1", "measured on": "human SGLT1 (Homo sapiens (Human))", "unit abbreviation": "nM", "IC50": 8.6}

// query Give its IC50 value. Item: C[C@H]1C(=O)NC[C@@H]1C(=O)Nc1cc(-c2cc(F)cc(OC(C)(C)C(F)(F)F)c2)n(-c2ccc(C(F)(F)F)nc2)n1
// result 1.2

// query Now consider C[C@H]1C(=O)NC[C@@H]1C(=O)Nc1cc(-c2cc(F)cc(OC(C)(C)C(F)(F)F)c2)n(-c2ccc(C(F)(F)F)cn2)n1 .
// result 5.3

// query Please give the result for C[C@H]1C(=O)NC[C@@H]1C(=O)Nc1cc(-c2cc(F)cc(OC(C)(C)C(F)(F)F)c2)n(-c2cnc(N(C)C)nc2)n1 too.
// result 0.98

// query Next up: C[C@H]1C(=O)NC[C@@H]1C(=O)Nc1cc(-c2cc(F)cc(OCC(F)(F)F)c2)n(-c2cncc(Cl)c2)n1
// result 4.6

// query Try this compound too: C[C@H]1C(=O)NC[C@@H]1C(=O)Nc1cc(-c2cccc(OC(F)(F)F)c2)n(-c2cnc(C(F)(F)F)nc2)n1
// result 47

// query Proceed to COc1ncc(-n2nc(NC(=O)[C@H]3CNC(=O)[C@@H]3C)cc2-c2cc(F)cc(OC(C)(C)C(F)(F)F)c2)cn1
// result 1.9

// query Also check C[C@H]1C(=O)NC[C@@H]1C(=O)Nc1cc(-c2cc(F)cc(OC(C)(C)C(F)(F)F)c2)n(-c2cncc(C(F)(F)F)c2)n1
// result 1.2

// query Cool, now C[C@H]1C(=O)NC[C@@H]1C(=O)Nc1cc(-c2cc(F)cc(OC(C)(C)C(F)(F)F)c2)n(-c2cncc(C(F)(F)F)n2)n1
// result 29
